- Assay name: Protein binding assay (HT dialysis), dog matrices
- Assay type: in vitro ADME
- Condition summary: pH 7.4, Dog liver microsomes 0.5 mg/mL, Mean ± SEM, n = 3, read-out: Fu Microsomes
Assign class by fraction unbound at 6 h, 1 μM: not lower than 0.7 means fulfilled; lower than 0.7 means not fulfilled.

{"Compound": "Cl.O=C(N[C@H]1CCNC[C@H]1F)c1cn(Cc2ccnc(F)c2)c2c(F)ccc(F)c12 (single isomer, unassigned; isomer-i)", "Label": "fulfilled"}
{"Compound": "O=C(N[C@H]1CCCC[C@@H]1O)c1cn(Cc2ccnc(F)c2)c2cccc(F)c12", "Label": "not fulfilled"}
{"Compound": "Cn1cc(Cn2cc(C(=O)N[C@H]3CCCC[C@@H]3O)c3c(F)cccc32)cn1", "Label": "fulfilled"}
{"Compound": "O=C(N[C@H]1CCCC[C@@H]1O)c1cn(Cc2ccnc(Cl)c2)c2cccc(F)c12", "Label": "not fulfilled"}
{"Compound": "Cn1cc(Cn2cc(C(=O)N[C@H]3CCCC[C@@H]3O)c3c(F)ccc(F)c32)cn1", "Label": "fulfilled"}
